Listing of recorded MIC50 by entry.
System: Streptococcus pyogenes
assayOverview: Antibacterial activity against Streptococcus pyogenes harboring erm(A) gene after overnight incubation by agar dilution method
Assay type: functional
Report the figure in µg/mL without appending any unit label.

Illustrative cases are given below, each with its answer.
Request: MIC50, test system Streptococcus pyogenes, entry CC[C@H]1OC(=O)[C@H](C)[C@@H](O[C@H]2C[C@@](C)(OC)[C@@H](O)[C@H](C)O2)[C@H](C)[C@@H](O[C@@H]2O[C@H](C)C[C@H](N(C)C)[C@H]2O)[C@](C)(O)C[C@@H](C)CN(C)[C@H](C)[C@@H](O)[C@]1(C)O [AZITHROMYCIN]
16

Request: MIC50, test system Streptococcus pyogenes, entry CC1(C)S[C@@H]2[C@H](NC(=O)Cc3ccccc3)C(=O)N2[C@H]1C(=O)O [PENICILLIN G]
0.015

Request: MIC50, test system Streptococcus pyogenes, entry COc1c(N2C[C@@H]3CCCN[C@@H]3C2)c(F)cc2c(=O)c(C(=O)O)cn(C3CC3)c12 [MOXIFLOXACIN]
0.25

Next:
Request: MIC50, test system Streptococcus pyogenes, entry CCC[C@@H]1C[C@@H](C(=O)N[C@@H]([C@H]2O[C@H](SC)[C@H](O)[C@@H](O)[C@H]2O)[C@H](C)Cl)N(C)C1 [CLINDAMYCIN]
0.125

Request: MIC50, test system Streptococcus pyogenes, entry CC[C@H]1OC(=O)[C@@](C)(F)C(=O)[C@H](C)[C@@H](O[C@@H]2O[C@H](C)C[C@H](N(C)C)[C@H]2O)[C@](C)(OC)C[C@@H](C)C(=O)[C@H](C)[C@H]2N(CCCCn3cc(-c4cccc(N)c4)nn3)C(=O)O[C@]12C [SOLITHROMYCIN]
0.03

---

Listing of recorded MIC90 by entry.
Tested on: Streptococcus pneumoniae
assayOverview: Antibacterial activity against macrolide-resistant Streptococcus pneumoniae harboring erm(B) gene after overnight incubation by agar dilution method
Type: functional
Report the figure in µg/mL without appending any unit label.

Illustrative cases are given below, each with its answer.
Request: MIC90, test system Streptococcus pneumoniae, entry C[C@H]1COc2c(N3CCN(C)CC3)c(F)cc3c(=O)c(C(=O)O)cn1c23.C[C@H]1COc2c(N3CCN(C)CC3)c(F)cc3c(=O)c(C(=O)O)cn1c23.O [LEVOFLOXACIN]
2

Request: MIC90, test system Streptococcus pneumoniae, entry CC1(C)S[C@@H]2[C@H](NC(=O)Cc3ccccc3)C(=O)N2[C@H]1C(=O)O [PENICILLIN G]
4

Request: MIC90, test system Streptococcus pneumoniae, entry CC[C@H]1OC(=O)[C@@](C)(F)C(=O)[C@H](C)[C@@H](O[C@@H]2O[C@H](C)C[C@H](N(C)C)[C@H]2O)[C@](C)(OC)C[C@@H](C)C(=O)[C@H](C)[C@H]2N(CCCCn3cc(-c4cccc(N)c4)nn3)C(=O)O[C@]12C [SOLITHROMYCIN]
0.5

Request: MIC90, test system Streptococcus pneumoniae, entry CC[C@H]1OC(=O)[C@H](C)C(=O)[C@H](C)[C@@H](O[C@@H]2O[C@H](C)C[C@H](N(C)C)[C@H]2O)[C@](C)(OC)C[C@@H](C)C(=O)[C@H](C)[C@H]2N(CCCCn3cnc(-c4cccnc4)c3)C(=O)O[C@]12C [TELITHROMYCIN]
1

Next:
Request: MIC90, test system Streptococcus pneumoniae, entry COc1c(N2C[C@@H]3CCCN[C@@H]3C2)c(F)cc2c(=O)c(C(=O)O)cn(C3CC3)c12 [MOXIFLOXACIN]
0.5

---

Test system: Streptococcus pneumoniae
assayOverview: Antibacterial activity against macrolide-resistant Streptococcus pneumoniae 3665 harboring mef(A) gene after 26 passages and 10 compound-free subculturing by retest method
Format: functional
measuredProperty: MIC (mg/L)
Report the figure in mg/L without appending any unit label.

Illustrative cases are given below, each with its answer.
Fill in: MIC of CC[C@H]1OC(=O)[C@H](C)[C@@H](O[C@H]2C[C@@](C)(OC)[C@@H](O)[C@H](C)O2)[C@H](C)[C@@H](O[C@@H]2O[C@H](C)C[C@H](N(C)C)[C@H]2O)[C@](C)(O)C[C@@H](C)CN(C)[C@H](C)[C@@H](O)[C@]1(C)O is ___
8

Fill in: MIC of CCC[C@@H]1C[C@@H](C(=O)N[C@@H]([C@H]2O[C@H](SC)[C@H](O)[C@@H](O)[C@H]2O)[C@H](C)Cl)N(C)C1 is ___
0.03

Next:
Fill in: MIC of CC[C@H]1OC(=O)[C@@](C)(F)C(=O)[C@H](C)[C@@H](O[C@@H]2O[C@H](C)C[C@H](N(C)C)[C@H]2O)[C@](C)(OC)C[C@@H](C)C(=O)[C@H](C)[C@H]2N(CCCCn3cc(-c4cccc(N)c4)nn3)C(=O)O[C@]12C is ___
0.06

---

Listing of recorded MIC50 by entry.
Tested on: Streptococcus pyogenes
assayOverview: Antibacterial activity against macrolide-susceptible Streptococcus pyogenes after overnight incubation by agar dilution method
Assay type: functional
Report the figure in µg/mL without appending any unit label.

Fill in: MIC50 of COc1c(N2C[C@@H]3CCCN[C@@H]3C2)c(F)cc2c(=O)c(C(=O)O)cn(C3CC3)c12 is ___
0.25

Fill in: MIC50 of CC[C@H]1OC(=O)[C@@](C)(F)C(=O)[C@H](C)[C@@H](O[C@@H]2O[C@H](C)C[C@H](N(C)C)[C@H]2O)[C@](C)(OC)C[C@@H](C)C(=O)[C@H](C)[C@H]2N(CCCCn3cc(-c4cccc(N)c4)nn3)C(=O)O[C@]12C is ___
0.015

Fill in: MIC50 of CCC[C@@H]1C[C@@H](C(=O)N[C@@H]([C@H]2O[C@H](SC)[C@H](O)[C@@H](O)[C@H]2O)[C@H](C)Cl)N(C)C1 is ___
0.06

Fill in: MIC50 of CC[C@H]1OC(=O)[C@H](C)[C@@H](O[C@H]2C[C@@](C)(OC)[C@@H](O)[C@H](C)O2)[C@H](C)[C@@H](O[C@@H]2O[C@H](C)C[C@H](N(C)C)[C@H]2O)[C@](C)(O)C[C@@H](C)CN(C)[C@H](C)[C@@H](O)[C@]1(C)O is ___
0.125

Next:
Fill in: MIC50 of CC[C@H]1OC(=O)[C@H](C)[C@@H](O[C@H]2C[C@@](C)(OC)[C@@H](O)[C@H](C)O2)[C@H](C)[C@@H](O[C@@H]2O[C@H](C)C[C@H](N(C)C)[C@H]2O)[C@](C)(O)C[C@@H](C)C(=O)[C@H](C)[C@@H](O)[C@]1(C)O is ___
0.06

---

Tested on: Streptococcus pyogenes
assayOverview: Antibacterial activity against macrolide-resistant Streptococcus pyogenes 2368 harboring erm(B) gene after 18 passages and 10 compound-free subculturing by retest method
Listing of recorded MIC by entry.

Illustrative cases are given below, each with its answer.
Fill in: MIC of CCC[C@@H]1C[C@@H](C(=O)N[C@@H]([C@H]2O[C@H](SC)[C@H](O)[C@@H](O)[C@H]2O)[C@H](C)Cl)N(C)C1 is ___
> 64 µg/mL

Fill in: MIC of CC[C@H]1OC(=O)[C@H](C)[C@@H](O[C@H]2C[C@@](C)(OC)[C@@H](O)[C@H](C)O2)[C@H](C)[C@@H](O[C@@H]2O[C@H](C)C[C@H](N(C)C)[C@H]2O)[C@](C)(OC)C[C@@H](C)C(=O)[C@H](C)[C@@H](O)[C@]1(C)O is ___
> 64 µg/mL

Fill in: MIC of CC[C@H]1OC(=O)[C@H](C)C(=O)[C@H](C)[C@@H](O[C@@H]2O[C@H](C)C[C@H](N(C)C)[C@H]2O)[C@](C)(OC)C[C@@H](C)C(=O)[C@H](C)[C@H]2N(CCCCn3cnc(-c4cccnc4)c3)C(=O)O[C@]12C is ___
> 64 µg/mL

Fill in: MIC of CC[C@H]1OC(=O)[C@H](C)[C@@H](O[C@H]2C[C@@](C)(OC)[C@@H](O)[C@H](C)O2)[C@H](C)[C@@H](O[C@@H]2O[C@H](C)C[C@H](N(C)C)[C@H]2O)[C@](C)(O)C[C@@H](C)CN(C)[C@H](C)[C@@H](O)[C@]1(C)O is ___
> 64 µg/mL

Next:
Fill in: MIC of CC[C@H]1OC(=O)[C@@](C)(F)C(=O)[C@H](C)[C@@H](O[C@@H]2O[C@H](C)C[C@H](N(C)C)[C@H]2O)[C@](C)(OC)C[C@@H](C)C(=O)[C@H](C)[C@H]2N(CCCCn3cc(-c4cccc(N)c4)nn3)C(=O)O[C@]12C is ___
8 µg/mL
